Target: feline FcRn complex (FcRn-α subunit and β-microglobulin) (feline)
Assay: SPR (Biacore), FcRn on SA chip, pH 6
experimentalEndpoint: pKd
Answers are plain numbers, as −log10 of the molar value.

Some entries whose results are on file:
feline IgG1a mutant ID No. 249: S428M, L314K (antibody, part only; not given: variable domains and light chain, not shown: another chain or arm of the molecule; small tags and cut ends) constant: ASTTAPSVFPLAPSCGTTSGATVALACLVLGYFPEPVTVSWNSGALTSGVHTFPAVLQASGLYSLSSMVTVPSSRWLSDTFTCNVAHPPSNTKVDKTVRKTDHPPGPKPCDCPKCPPPEMLGGPSIFIFPPKPKDTLSISRTPEVTCLVVDLGPDDSDVQITWFVDNTQVYTAKTSPREEQFNSTYRVVSVLPILHQDWKKGKEFKCKVNSKSLPSPIERTISKAKGQPHEPQVYVLPPAQEELSRNKVSVTCLIKSFHPPDIAVEWEITGQPEPENNYRTTPPQLDSDGTYFVYSKLSVDRSHWQRGNTYTCSVMHEALHSHHTQKSLTQSPGK : 9.01
feline IgG1a mutant ID No. 248: S428M, D312P (antibody, part only; not given: Variable domains, not shown: another chain or arm of the molecule) constant: ASTTAPSVFPLAPSCGTTSGATVALACLVLGYFPEPVTVSWNSGALTSGVHTFPAVLQASGLYSLSSMVTVPSSRWLSDTFTCNVAHPPSNTKVDKTVRKTDHPPGPKPCDCPKCPPPEMLGGPSIFIFPPKPKDTLSISRTPEVTCLVVDLGPDDSDVQITWFVDNTQVYTAKTSPREEQFNSTYRVVSVLPILHQPWLKGKEFKCKVNSKSLPSPIERTISKAKGQPHEPQVYVLPPAQEELSRNKVSVTCLIKSFHPPDIAVEWEITGQPEPENNYRTTPPQLDSDGTYFVYSKLSVDRSHWQRGNTYTCSVMHEALHSHHTQKSLTQSPGK : 8.24

Please state pKd for every binder in the list that follows.
1. feline IgG1a mutant ID No. 315: Q311Y, D312P, L314K (antibody, part only; not given: Variable domains, not shown: another chain or arm of the molecule) constant: ASTTAPSVFPLAPSCGTTSGATVALACLVLGYFPEPVTVSWNSGALTSGVHTFPAVLQASGLYSLSSMVTVPSSRWLSDTFTCNVAHPPSNTKVDKTVRKTDHPPGPKPCDCPKCPPPEMLGGPSIFIFPPKPKDTLSISRTPEVTCLVVDLGPDDSDVQITWFVDNTQVYTAKTSPREEQFNSTYRVVSVLPILHYPWKKGKEFKCKVNSKSLPSPIERTISKAKGQPHEPQVYVLPPAQEELSRNKVSVTCLIKSFHPPDIAVEWEITGQPEPENNYRTTPPQLDSDGTYFVYSKLSVDRSHWQRGNTYTCSVSHEALHSHHTQKSLTQSPGK
2. feline IgG1a mutant ID No. 264: D312P, L314K, S434Y (antibody, part only; not given: Variable domains, not shown: another chain or arm of the molecule) constant: ASTTAPSVFPLAPSCGTTSGATVALACLVLGYFPEPVTVSWNSGALTSGVHTFPAVLQASGLYSLSSMVTVPSSRWLSDTFTCNVAHPPSNTKVDKTVRKTDHPPGPKPCDCPKCPPPEMLGGPSIFIFPPKPKDTLSISRTPEVTCLVVDLGPDDSDVQITWFVDNTQVYTAKTSPREEQFNSTYRVVSVLPILHQPWKKGKEFKCKVNSKSLPSPIERTISKAKGQPHEPQVYVLPPAQEELSRNKVSVTCLIKSFHPPDIAVEWEITGQPEPENNYRTTPPQLDSDGTYFVYSKLSVDRSHWQRGNTYTCSVSHEALHYHHTQKSLTQSPGK

Ans:
[7.94, 7.14]
